Experiment: Nonclinical pharmacokinetics in rats
Parameters: species or system rat
Details: male, in vivo, 300000 ng/kg; rat IV bolus, M, 300,000 ng/kg

{"columns": ["Substance", "Unit", "AUC(0-inf)"],
 "data": [
  ["H-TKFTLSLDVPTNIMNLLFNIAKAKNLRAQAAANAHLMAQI-NH2 [SEQ ID NO: 1]", "ng·h/mL", 99.7]
]}

----------
Experiment: in vivo
Settings: dog, iv, 86 ng/kg/min

{"columns": ["Substance", "level at time molar at 0.5 h [nM]"],
 "data": [
  ["H-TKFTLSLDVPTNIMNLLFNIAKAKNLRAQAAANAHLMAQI-NH2 [SEQ ID NO: 1]", 1.18]
]}
